All values here come from ChEMBL document CHEMBL1128908.

- Assay Explanation: Plasma concentration at 2 hr in rats was evaluated.
- Format: ADME, organism-based
- Details: rat
Assay Readout: concentration at 2 h (ng/mL)

[A] CS(=O)(=O)c1ccc(-c2cnsc2-c2ccc(F)cc2)cc1
[B] CS(=O)(=O)c1ccc(-c2snnc2-c2ccc(F)cc2)cc1
[C] CS(=O)(=O)c1ccc(-c2cc(Br)sc2-c2ccc(F)cc2)cc1 [DUP-697]
Prompt line: Sort ascending by concentration at 2 h. Give the labels in the order specified.
Response line: C, A, B
(C: 700 ng/mL, A: 2200 ng/mL, B: 12800 ng/mL)

* * *

- Target System: Prostaglandin G/H synthase 2 (Homo sapiens)
- Sequence (P35354 whole entry): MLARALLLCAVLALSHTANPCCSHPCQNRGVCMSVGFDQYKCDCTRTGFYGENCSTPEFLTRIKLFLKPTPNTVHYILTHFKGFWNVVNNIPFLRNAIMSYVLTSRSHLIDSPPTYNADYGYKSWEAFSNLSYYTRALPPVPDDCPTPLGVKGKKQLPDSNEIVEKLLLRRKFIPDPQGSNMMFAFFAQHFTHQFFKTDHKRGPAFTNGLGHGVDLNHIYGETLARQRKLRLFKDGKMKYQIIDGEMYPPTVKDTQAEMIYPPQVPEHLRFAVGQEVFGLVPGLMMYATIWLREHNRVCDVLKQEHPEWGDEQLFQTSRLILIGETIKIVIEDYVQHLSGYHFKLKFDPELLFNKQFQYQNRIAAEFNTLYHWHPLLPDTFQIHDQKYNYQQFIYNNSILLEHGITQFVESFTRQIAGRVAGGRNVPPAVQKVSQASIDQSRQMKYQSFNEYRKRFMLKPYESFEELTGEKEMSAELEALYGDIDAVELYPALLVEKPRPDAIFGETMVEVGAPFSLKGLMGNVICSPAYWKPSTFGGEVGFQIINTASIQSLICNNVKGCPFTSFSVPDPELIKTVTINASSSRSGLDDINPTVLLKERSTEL
- Assay Explanation: biochemical
- Description: Inhibitory activity against human recombinant Prostaglandin G/H synthase 2 expressed in microsomes taken from baculovirus infected Sf9 cells
Assay Readout: IC50 (µM)

Prompt line: Read off the recorded IC50 for Cc1nc(-c2ccc(S(C)(=O)=O)cc2)c(-c2ccc(F)cc2)s1
Response line: 0.31

Prompt line: Supply IC50 value. Item: Cc1nc(-c2ccc(F)cc2)c(-c2ccc(S(C)(=O)=O)cc2)s1
Response line: 0.31

Prompt line: Provide measured IC50 value, entry: CS(=O)(=O)c1ccc(C2=C(c3ccc(F)cc3)C3CCC2C3)cc1 (stereo not given)
Response line: 30

Prompt line: Read off the recorded IC50 for CS(=O)(=O)c1ccc(-c2sncc2-c2ccc(F)cc2)cc1
Response line: 5.1

Prompt line: Identify the reported IC50 for the following entry. CS(=O)(=O)c1ccc(-c2cscc2-c2ccc(F)cc2)cc1
Response line: 0.47

Prompt line: Read off the recorded IC50 for CS(=O)(=O)c1ccc(-c2snnc2-c2ccc(F)cc2)cc1
Response line: 6.5

Prompt line: Please report the measured IC50 for CS(=O)(=O)c1ccc(-c2cc(C(F)(F)F)nn2-c2ccc(F)cc2)cc1
Response line: 1.2

[I] CS(=O)(=O)c1ccc(-c2cnsc2-c2ccc(F)cc2)cc1
[II] CC(C)(O)c1scc(-c2ccc(S(C)(=O)=O)cc2)c1-c1ccc(F)cc1
Prompt line: Which value of IC50 is numerically greater: that of I or that of II ? Return value: the label identifying the chosen record.
Response line: II
